// reported HC50 at 1 h per item
Assay: Hemolytic activity in human erythrocytes assessed as hemolysis incubated for 1 hrs
Format: toxicity, cell-based, Erythrocyte
propertyLabel: HC50 at 1 h (µg/mL)

- smilesStr: "O=C(O)c1ccc2cc(-c3ccc(O)c(C45CC6CC(CC(C6)C4)C5)c3)ccc2c1"
  propertyLabel: "HC50 at 1 h"
  valueQualifier: "="
  result: 32
- smilesStr: "O=C(O)c1c(Sc2ccccc2)c2cc(Cl)ccc2n1Cc1ccc(Cl)cc1"
  propertyLabel: "HC50 at 1 h"
  valueQualifier: "="
  result: 47
- smilesStr: "O=C(O)c1c(Oc2ccc(I)cc2)c2cc(Cl)ccc2n1Cc1ccc(Cl)cc1"
  propertyLabel: "HC50 at 1 h"
  valueQualifier: ">"
  result: 64

* * *

Test: Cytotoxicity against human hepatocytes assessed as reduction in cell growth by WST-1 assay
Type: toxicity, cell-based, Hepatocyte
Settings: read-out: LC50 (the source's name)

- smilesStr: "O=C(O)c1ccc2cc(-c3ccc(O)c(C45CC6CC(CC(C6)C4)C5)c3)ccc2c1"
  CC50: "20 µg/mL"

Provenance of the data: ChEMBL document CHEMBL5241050
